# TARGET: PD-1 (UniProt Q15116 25-167, limits assumed)
# Sequence (Q15116 25-167 limits assumed): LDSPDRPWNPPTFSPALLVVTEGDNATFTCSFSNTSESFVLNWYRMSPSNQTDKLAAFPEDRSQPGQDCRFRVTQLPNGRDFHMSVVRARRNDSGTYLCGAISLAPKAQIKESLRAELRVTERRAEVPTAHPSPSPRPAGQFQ
# RUN_DESCRIPTION: ELISA, OD mutant/OD WT; B=70-90%
Reported binding activity (OD after mutation/OD wild type) is given for each of the following binders.

Take a look at these entries with their results.
Field binding activity (OD after mutation/OD wild type) (entry anti-PD-1 antibody 1 heavy chain I51C (antibody, human IgG4 S228P, kappa, V domains shown) VH: QVQLVQSGVEVKKPGASVKVSCKASGYTFTNYYMYWVRQAPGQGLEWMGGCNPSNGGTNFNEKFKNRVTLTTDSSTTTAYMELKSLQFDDTAVYYCARRDYRFDMGFDYWGQGTTVTVSS VL: EIVLTQSPATLSLSPGERATLSCRASKGVSTSGYSYLHWYQQKPGQAPRLLIYLASYLESGVPARFSGSGSGTDFTLTISSLEPEDFAVYYCQHSRDLPLTFGGGTKVEIKR ) reads 70 to 90%

Field binding activity (OD after mutation/OD wild type) (entry anti-PD-1 antibody 2 heavy chain D54C (antibody, human IgG4 S228P, kappa, V domains shown) VH: QVQLVESGGGVVQPGRSLRLDCKASGITFSNSGMHWVRQAPGKGLEWVAVIWYCGSKRYYADSVKGRFTISRDNSKNTLFLQMNSLRAEDTAVYYCATNDDYWGQGTLVTVSS VL: EIVLTQSPATLSLSPGERATLSCRASQSVSSYLAWYQQKPGQAPRLLIYDASNRATGIPARFSGSGSGTDFTLTISSLEPEDFAVYYCQQSSNWPRTFGQGTKVEIKR ) reads 70 to 90%

We next turn to a different binder, shown below.
Field binding activity (OD after mutation/OD wild type) (entry anti-PD-1 antibody 1 heavy chain Y35C (antibody, human IgG4 S228P, kappa, V domains shown) VH: QVQLVQSGVEVKKPGASVKVSCKASGYTFTNYYMCWVRQAPGQGLEWMGGINPSNGGTNFNEKFKNRVTLTTDSSTTTAYMELKSLQFDDTAVYYCARRDYRFDMGFDYWGQGTTVTVSS VL: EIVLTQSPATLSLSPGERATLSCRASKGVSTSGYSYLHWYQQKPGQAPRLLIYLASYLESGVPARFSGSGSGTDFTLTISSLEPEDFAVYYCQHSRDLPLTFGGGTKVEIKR ) reads 70 to 90%
